# TGT: T1, PEAK1^IDR1 (residues 1082-1746), from insect cells (human, UniProt Q9H792 1082-1746, biotin (EZ-Link NHS-PEG4-Biotin, 1:1 molar ratio))
# T1 construct: human PEAK1, UniProt Q9H792, residues 1082-1746; Purifies as a homodimer; Phosphorylation at the tandem 14-3-3 motif was not observed
# T1 sequence (looked up): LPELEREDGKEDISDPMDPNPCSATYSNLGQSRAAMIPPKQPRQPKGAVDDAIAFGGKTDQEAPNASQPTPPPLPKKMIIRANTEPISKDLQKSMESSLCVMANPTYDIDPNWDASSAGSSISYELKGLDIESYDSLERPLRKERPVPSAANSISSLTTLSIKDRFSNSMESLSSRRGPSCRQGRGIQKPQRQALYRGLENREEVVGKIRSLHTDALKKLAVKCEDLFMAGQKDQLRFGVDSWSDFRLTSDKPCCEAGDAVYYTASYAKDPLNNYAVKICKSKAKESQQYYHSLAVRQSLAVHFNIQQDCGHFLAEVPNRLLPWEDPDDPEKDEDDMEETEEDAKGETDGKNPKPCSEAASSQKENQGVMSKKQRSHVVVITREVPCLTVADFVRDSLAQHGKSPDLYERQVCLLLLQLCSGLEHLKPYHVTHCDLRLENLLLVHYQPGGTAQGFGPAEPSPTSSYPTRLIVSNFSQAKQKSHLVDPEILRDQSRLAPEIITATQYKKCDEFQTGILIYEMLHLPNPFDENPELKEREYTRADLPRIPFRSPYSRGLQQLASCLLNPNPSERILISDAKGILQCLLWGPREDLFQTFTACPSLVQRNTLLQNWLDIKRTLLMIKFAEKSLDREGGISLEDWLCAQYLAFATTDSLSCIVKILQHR
# PROTOCOL DETAILS: SPR; biotinylated PEAK proteins (with or without Src phosphorylation) captured with a biotin CAPture kit, CrkII NSH3 as analyte; Biacore 8K+, 20 °C, HBS-TP (150 mM NaCl); 1 M NaCl regeneration; steady state
# TEST CONTEXT: both partners purified
RECORDED ENDPOINT: Kd (µM)
One number for each entry, in µM.

Enquiry: Tell me the measured Kd of CrkII N-terminal SH3 domain (CrkII^NSH3, residues 134-191) (domain or fragment, human, UniProt P46108-1 134-191, looked up, human CrkII NSH3 domain, UniProt P46108-1, residues 134-191; Amine coupled to a CM5 chip in a2; analyte in a4; in the syringe in ITC) AEYVRALFDFNGNDEEDLPFKKGDILRIRDKPEEQWWNAEDSEGKRGMIPVPYVEKYR , please.
Return: 3.7
